Tested on: CAKI-1
protocol description: NCI tumour cell line growth inhibition, 48 h
The source made the active and inactive calls. Cut-off read from the data, not from the text of the source: active = GI50 up to about 1.1 µM and inactive = higher.
Labels: active, inactive

{"compound": "COc1ccc(C(=O)Nc2ccn(CCOC(=O)c3ccc(OC)cc3)c(=O)n2)cc1", "label value": "inactive"}
{"compound": "O=C1c2ccccc2C(=O)[C@@]23O[C@@]12C1(Oc2cccc4cccc(c24)O1)[C@@H]1O[C@@H]1[C@@H]3O", "label value": "inactive"}
{"compound": "O=P(O)(CN1CCN(CP(=O)(O)c2ccccc2)CCN(CP(=O)(O)c2ccccc2)CC1)c1ccccc1", "label value": "inactive"}
{"compound": "O=Cc1cc(O)c(O)c(O)c1-c1c(C=O)cc(O)c(O)c1O", "label value": "inactive"}
{"compound": "Cc1cccc(C2SCc3nc4ccccc4n32)c1 (centres undefined)", "label value": "inactive"}
{"compound": "Nc1ccn(C2OC(COP(=O)(O)OCC3OC(n4cc(F)c(=O)[nH]c4=O)CC3O)C(O)C2O)c(=O)n1 (centres undefined)", "label value": "active"}
{"compound": "CCOC(=O)c1c(-c2ccc(Cl)cc2)c(C#N)c(=S)n(C2OC(COC(C)=O)C(OC(C)=O)C(OC(C)=O)C2OC(C)=O)c1-c1ccccc1 (centres undefined)", "label value": "inactive"}
{"compound": "O=C(/C=C/c1ccccc1)Oc1cccc(Br)c1", "label value": "inactive"}
{"compound": "COc1c(OC)c(O)c2c(=O)c(OC)c(-c3ccc4c(c3)OCO4)oc2c1O", "label value": "inactive"}
